B1: C9orf9 (parent)
chain: TKHKCRQLTKASLKPRGCSKPPWR

variants of: B1; test: protein stability index of a GFP-peptide fusion (GPS, HEK-293T) (PSI 1-6); higher = more stable; details: c terminus: a fixed tail appended;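 further: lentivirally expressed fusions sorted by FACS into six bins by GFP to DsRed ratio, PSI derived from sequencing read proportions per bin multiplied by bin number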
metric: protein stability index
Please respond with just the number, no unit label.

q: What value of protein stability index has been recorded for this entry: H3K
a: 3.09

q: What value of protein stability index has been recorded for this entry: K10Y
a: 2.53

q: What value of protein stability index has been recorded for this entry: K10D
a: 1.94

q: What value of protein stability index has been recorded for this entry: K2C
a: 2.68
